# Experiment summary: LAP4-GFP modulation potency in yeast, dose response, cell-based, MLPCN hits, flow cytometry (AID 2745);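 further: yeast exposed to compound for three hours at 30 degrees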
# Condition info: S. cerevisiae LAP4-GFP reporter, flow cytometry fluorescence; at 33 µM (top of the series)
Active and inactive are the calls of the source. How the calls were made is not given here.
Entries and their LAP4-GFP fluorescence (kMESF) values follow.

// below: answered compounds
CC(=O)Oc1oc(-c2ccccc2)nc1C=Nc1ccccc1 ... 8.16 kMESF (inactive)
N#Cc1cc([N+](=O)[O-])c(-n2nnc3ccccc32)c([N+](=O)[O-])c1 ... 14.5 kMESF (inactive)
N/C(=N\OC(=O)c1cc(Br)ccc1Cl)c1ccccn1 ... 12.2 kMESF (inactive)
C/C(=N\Nc1ncnc2sc(C)c(C)c12)c1ccccn1 ... -7.63 kMESF (inactive)
CC(=O)Oc1ccc(N2C(=O)C3C4C=CC(O4)C3C2=O)cc1 (configuration not stated) ... 6.57 kMESF (inactive)
CC[C@H](C)/C=C(C)/C=C/C1=CC2=C(Cl)C(=O)[C@@](C)(OC(C)=O)C(=O)C2=CO1 ... 0.86 kMESF (inactive)
Nc1nc2ncc(CNc3ccc(C(=O)N[C@@H](CCC(=O)O)C(=O)O)cc3)nc2c(=O)[nH]1 ... 4.01 kMESF (inactive)
COc1ccc(N/N=C(\C#N)C(N)=O)cc1 ... 13.2 kMESF (inactive)
O=[N+]([O-])c1cc(CN2CCN(c3cccc(C(F)(F)F)c3)CC2)c2cccnc2c1O ... 7.46 kMESF (inactive)
Cc1nc2ccc(NC(=O)c3oc4ccc(F)cc4c3C)cc2s1 ... 3.28 kMESF (inactive)

Query :: Give the measured LAP4-GFP fluorescence (kMESF) of O=c1oc(/C=C/c2ccc([N+](=O)[O-])s2)nc2ccccc12 .
Result :: 12.6 kMESF (inactive)

Query :: Sample COc1cc(C=C2C(=O)c3ccccc3C2=O)cc(OC)c1OC — what was its LAP4-GFP fluorescence (kMESF)?
Result :: 4.04 kMESF (inactive)

Query :: What does the record list as LAP4-GFP fluorescence (kMESF) for CCN(CC)c1ccc2cc(-c3nc(-c4ccc(OC)cc4)cs3)c(=O)oc2c1 ?
Result :: 1.57 kMESF (inactive)

Query :: Sample Cc1cc(C)c2c(c1)/C(=C/C(=O)c1ccc(Br)s1)C(=O)N2 — what was its LAP4-GFP fluorescence (kMESF)?
Result :: 6.56 kMESF (inactive)

Query :: Data request, read-out LAP4-GFP fluorescence (kMESF), for CC(Oc1ccc2ccccc2c1)C(=O)NNC(=S)NC(=O)c1ccco1 (configuration not stated)
Result :: 13.9 kMESF (inactive)

Query :: Record request: LAP4-GFP fluorescence (kMESF) value, item CC(C)C[C@]1(c2ccccc2)ON(c2ccccc2C(F)(F)F)C1=O
Result :: 2.53 kMESF (inactive)

Query :: Which LAP4-GFP fluorescence (kMESF) value belongs to O=C(/C=C/c1ccccc1[N+](=O)[O-])c1ccccc1Br ?
Result :: 15.6 kMESF (inactive)

Query :: Field request: LAP4-GFP fluorescence (kMESF) | item: CC[C@]1(c2ccccc2OC)ON(c2ccccc2C(F)(F)F)C1=O
Result :: 7.52 kMESF (inactive)

Query :: LAP4-GFP fluorescence (kMESF) lookup needed for Cc1cc(/C=C2/SC(=S)N(c3cccc(Cl)c3)C2=O)c(C)n1-c1cccnc1 , thanks.
Result :: 10.5 kMESF (inactive)

Query :: Which LAP4-GFP fluorescence (kMESF) reading was recorded for the compound C#CCOCCOCCOCCNc1nc(N2CCN(C(=O)CCCCCCCCCCNC(=O)[C@H](CCCCN)n3cc(CCO)nn3)CC2)nc(N2CCN(C(=O)CCCCCCCCCCNC(=O)[C@H](CCCCN)n3cc(C[C@@H](C)CC)nn3)CC2)n1 ?
Result :: 5.86 kMESF (inactive)

Query :: Could you share which LAP4-GFP fluorescence (kMESF) value was measured for O=C1C(Cl)=C(Nc2ccccc2O)C(=O)N1CCc1ccccc1 ?
Result :: 5.01 kMESF (inactive)

Query :: Would you mind telling me what LAP4-GFP fluorescence (kMESF) value was observed for Cc1cccc(/C=C/C(=O)c2ccc([N+](=O)[O-])o2)c1 ?
Result :: 9.32 kMESF (inactive)

Query :: What measured LAP4-GFP fluorescence (kMESF) goes with COc1ccc([C@@]2(C(C)C)ON(c3ccccc3C(F)(F)F)C2=O)cc1 ?
Result :: 4.38 kMESF (inactive)

Query :: LAP4-GFP fluorescence (kMESF) for COc1ccc(NC2=C(Cl)C(=O)N(CCc3ccccc3)C2=O)c(OC)c1 ?
Result :: 3.18 kMESF (inactive)

Query :: Tell me the measured LAP4-GFP fluorescence (kMESF) of CCn1c(/C=C/c2ccc([N+](=O)[O-])o2)nc2ccccc2c1=O , please.
Result :: -69.5 kMESF (inactive)

Query :: Reported LAP4-GFP fluorescence (kMESF), compound CC1(C(=O)NC(=S)NNC(=O)c2ccncc2)CCCCC1 : ____
Result :: 4.99 kMESF (inactive)

Query :: Suppose we examine the compound COc1ccc(CCNC2=C(Cl)C(=O)N(CCc3ccc(OC)c(OC)c3)C2=O)cc1OC ; what LAP4-GFP fluorescence (kMESF) value has been reported?
Result :: 5.91 kMESF (inactive)
